A collection of compounds and their measured TGI
Tested on: HCT-116 colon
Assay: NCI tumour cell line growth inhibition, 48 h

# count of solved cases: 4
[
  {
    "STRUCTURE_AS_SMILES": "O=C1c2ccccc2-c2c1c1ccc([N+](=O)[O-])cc1c(=O)n2CCCN1CCOCC1",
    "TGI": "1.81 µM"
  },
  {
    "STRUCTURE_AS_SMILES": "Cc1ccc(S(=O)(=O)CC(=O)CC(=O)C(=O)Nc2cccc(C(F)(F)F)c2)cc1",
    "TGI": "> 100 µM"
  },
  {
    "STRUCTURE_AS_SMILES": "OCCN(CCO)CCn1cnc2c(NCc3ccccc3)ncnc21",
    "TGI": "> 100 µM"
  },
  {
    "STRUCTURE_AS_SMILES": "O=[N+]([O-])C(=C1NCCN1)C(Cl)=C(Cl)Cl",
    "TGI": "> 100 µM"
  }
]

Ask: Please give the measured TGI for this compound: Cc1ccc(S(=O)(=O)NNC(=O)Nc2ccc(Cl)cc2)cc1
Reply: > 100 µM
